molecular target: Nuclear receptor subfamily 1 group D member 1 (Homo sapiens) (UniProt P20393); assay: modulators of Rev-erb alpha DNA binding, dose response, biochemical, FITC-DNA, fluorescence polarization (AID 1259321)
Sequence (P20393 whole entry, looked up): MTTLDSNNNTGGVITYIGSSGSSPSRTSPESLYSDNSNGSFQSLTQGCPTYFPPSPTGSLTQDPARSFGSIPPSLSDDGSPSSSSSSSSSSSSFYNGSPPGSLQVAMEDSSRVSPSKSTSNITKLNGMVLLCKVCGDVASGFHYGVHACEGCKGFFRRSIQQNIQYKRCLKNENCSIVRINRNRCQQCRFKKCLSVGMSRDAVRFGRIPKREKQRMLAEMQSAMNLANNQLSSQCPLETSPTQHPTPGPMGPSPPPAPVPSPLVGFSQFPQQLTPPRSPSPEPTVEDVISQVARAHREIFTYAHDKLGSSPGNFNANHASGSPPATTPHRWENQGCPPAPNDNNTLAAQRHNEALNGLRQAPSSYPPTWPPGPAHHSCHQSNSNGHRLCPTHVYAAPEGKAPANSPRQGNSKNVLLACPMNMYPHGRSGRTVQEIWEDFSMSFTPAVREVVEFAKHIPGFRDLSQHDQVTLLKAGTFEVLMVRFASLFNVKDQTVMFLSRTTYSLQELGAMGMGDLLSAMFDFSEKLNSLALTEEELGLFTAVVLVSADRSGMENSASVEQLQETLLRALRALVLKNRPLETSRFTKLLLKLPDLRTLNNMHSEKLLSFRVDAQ
Activity calls are given as the source filed them.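 How the source made its calls: active means half-maximal concentration for changing protein binding to DNA, from the fitted dose curve, below 10 micromolar; inactive means the rest.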
A correct response names exactly one class from active, inactive

>>> class_assignment("COc1ccccc1CNC(=O)COC(=O)c1cccnc1SCC(=O)NCc1ccccc1OC")
"active"
>>> class_assignment("CCOC(=O)c1sc(=NC(=O)c2ccc(OC(C)C)cc2)n(C)c1C")
"active"
>>> class_assignment("CCC(=O)c1ccc(N2CCN(S(=O)(=O)c3ccccc3)CC2)c(F)c1")
"active"
>>> class_assignment("COc1ccc(-c2nn(C)c3sc(C(=O)NCc4ccco4)cc23)cc1OC")
"inactive"
>>> class_assignment("CN(C)c1ccc(/C=C/c2cc[n+](C)cc2)cc1")
"active"

INPUT: Please state the recorded outcome for this molecule: COc1ccc(-c2c(C#N)c(SCC(N)=O)nc3c2CCCC3)cc1
OUTPUT: active

INPUT: Next entry: Cc1c(-c2ccc(Cl)cc2)oc(=O)c2c(N)n(-c3ccccc3)nc12
OUTPUT: active

INPUT: Request: O=[N+]([O-])c1ccc(N2CCCCCC2)c2nonc12
OUTPUT: inactive

INPUT: Thanks! And CCSc1nnc(NC(=O)c2cc3c(s2)CCCC3)s1 ?
OUTPUT: active

INPUT: Let us now turn to COc1cccc(-n2c([S-])c(C(=O)Nc3ccc(S(=O)(=O)N4CCOCC4)cc3)[n+]3cc(C(N)=O)ccc23)c1
OUTPUT: inactive

INPUT: Please do the same for O=C(Nc1nc2ccsc2c(=O)s1)c1ccc(Cl)cc1 as well.
OUTPUT: active

INPUT: O=C(Nc1nc(=O)c2ccccc2s1)c1ccc(F)cc1 , same question.
OUTPUT: active

====

biological target: Nuclear receptor subfamily 1 group D member 1 (Homo sapiens) (UniProt P20393); assay: modulators of Rev-erb alpha DNA binding, dose response, biochemical, FITC-DNA, fluorescence polarization (AID 1259321)
Activity calls are given as the source filed them.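 How the source made its calls: active means half-maximal concentration for changing protein binding to DNA, from the fitted dose curve, below 10 micromolar; inactive means the rest.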
Permitted responses: label 1 for active, label 0 for inactive

Reference set (3 entries):
>>> class_assignment("N#Cc1c(N)nc2c3c(sc(=N)c2c1N)NC(=O)CC3c1ccccc1 (stereo not drawn)")
"label 0"
>>> class_assignment("Cc1cccc(N2CCN(c3ccc4cc(S(=O)(=O)N5CCCCC5)ccc4n3)CC2)c1C")
"label 0"
>>> class_assignment("CCN(CC)C(=O)CSc1nc(N)c(C#N)c(-c2cccs2)c1C#N")
"label 1"

INPUT: Entry Cc1nc(SCc2nc3ccccc3[nH]2)c2oc3cc(Br)ccc3c2n1 : call = ?
OUTPUT: label 1

INPUT: Next compound up: O=C1/C(=C\c2cc(Cl)c(O)c(Cl)c2)SC(=S)N1Cc1ccccc1
OUTPUT: label 0

INPUT: Please do the same for CC(C)CCN1C(=O)c2cccc3c(N)ccc(c23)C1=O as well.
OUTPUT: label 1

INPUT: Item: Cc1cccc(-c2nnn3c2nc(NCCc2ccc(S(N)(=O)=O)cc2)c2ccccc23)c1
OUTPUT: label 0

INPUT: Do the same for COC(=O)c1cccc(Cn2ccc3ccc(-c4ccc5ccn(C(=O)c6ccccc6C)c5c4)cc32)c1 please
OUTPUT: label 1

INPUT: Would you kindly repeat that for N#Cc1cc(C#N)c(N2CCN(c3cccc(Cl)n3)CC2)nc1N ?
OUTPUT: label 1

INPUT: Next up: CN1C(=O)c2cccc3c(N)ccc(c23)C1=O
OUTPUT: label 0

INPUT: Another compound to check: COc1ccc(-c2nn(C)c(=O)c3ccccc23)cc1NC(=O)COc1ccccc1
OUTPUT: label 1

INPUT: Thanks! And COc1ccc(Cn2ccc3ccc(-c4ccc5ccn(C(=O)c6ccccc6OC)c5c4)cc32)cc1 ?
OUTPUT: label 0

INPUT: Follow-up item: Nc1ccc2c3c(cccc13)C(=O)N(c1ccccc1)C2=O
OUTPUT: label 0

INPUT: How about this compound: O=c1ccc(-c2ccc(S(=O)(=O)N3CCN(c4cccc(Cl)c4)CC3)o2)n[nH]1
OUTPUT: label 1

INPUT: Then this compound: Nc1ccc(-c2c3ccc(=O)cc-3oc3cc(O)ccc23)cc1C(=O)O
OUTPUT: label 1

INPUT: Next record, please: Cc1ccc2c(n1)sc1c(-c3ccccc3)c(C#N)c(N)nc12
OUTPUT: label 0

INPUT: Do the same for CCC(=O)c1cn(CC(=O)Nc2ccccc2Cl)c2ccccc12 please
OUTPUT: label 1

INPUT: Same question, COc1ccc2nc(SCc3cccnc3)c(C#N)cc2c1 this time
OUTPUT: label 1

====

molecular target: UniProt:P20393; test: modulators of Rev-erb alpha DNA binding, dose response, biochemical, FITC-DNA, fluorescence polarization (AID 1259321)
Active and inactive are the calls of the source.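 How the source made its calls: active means half-maximal concentration for changing protein binding to DNA, from the fitted dose curve, below 10 micromolar; inactive means the rest.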
Result category, one only: active, inactive

Below, 5 molecules whose answers are already recorded.
>>> class_assignment("COc1ccc2cc(C#N)c(Nc3cccc(F)c3)nc2c1")
"active"
>>> class_assignment("O=C(c1ccccc1)N1N=C(c2ccccc2O)CC1c1ccccc1 (stereo not given)")
"active"
>>> class_assignment("O=S(=O)(Cc1cc(NCc2ccccc2)nc(-c2ccncc2)n1)c1ccccc1")
"inactive"
>>> class_assignment("COc1ccc(C2C(C#N)=C(C)NC3=C2C(=O)c2ccccc23)cc1 (stereo not given)")
"inactive"
>>> class_assignment("O=S(=O)(c1ccc2nc(N3CCN(c4ccccc4)CC3)ccc2c1)N1CCCCC1")
"inactive"

INPUT: Hey, what did the test say about O=C(CN1CCCCC1)Nc1c2c(nc3ccccc13)N(c1ccccc1)CC2 ?
OUTPUT: active

INPUT: Entry to check: COc1ccc2nc(SCC(=O)NC3CCCC3)c(C)cc2c1
OUTPUT: active

INPUT: Item: Brc1ccc(Sc2cnc3ccccc3n2)cc1
OUTPUT: inactive

INPUT: // query: O=C1c2cccc3c(O)ccc(c23)C(=O)N1c1ccc(Cl)cc1
OUTPUT: active

INPUT: Quick one: COCCn1c(=NC(=O)c2ccc3c(c2)OCCO3)sc2cc(S(N)(=O)=O)ccc21
OUTPUT: active

INPUT: Continue with CCN(CC)c1ccc2cc(C(=O)NCc3ccc(F)cc3)c(=N)oc2c1
OUTPUT: inactive

INPUT: Continue with Cc1ccc2nc(N3CCN(c4cccc(C)c4C)CC3)c3nnnn3c2c1
OUTPUT: active

INPUT: Same again, this time with O=C(O)CN1C(=O)/C(=C\c2cn(CC(=O)N3CCOCC3)c3ccccc23)SC1=S
OUTPUT: active

INPUT: Quick one: COc1ccc(C(=O)Nc2ccccc2-c2nnn(CC(N)=O)n2)cc1
OUTPUT: inactive

INPUT: Then Cn1c(SCC(=O)Nc2cccc(F)c2)nnc1-c1cc2ccccc2o1 ?
OUTPUT: inactive

====

biological target: Nuclear receptor subfamily 1 group D member 1 (Homo sapiens) (UniProt P20393); test: modulators of Rev-erb alpha DNA binding, dose response, biochemical, FITC-DNA, fluorescence polarization (AID 1259321)
Activity calls are given as the source filed them.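 How the source made its calls: active means half-maximal concentration for changing protein binding to DNA, from the fitted dose curve, below 10 micromolar; inactive means the rest.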
Returns: one label drawn from 1 (yes) for active, 0 (no) for inactive

Examples with answers:
>>> class_assignment("CCOc1ccccc1NC(=O)c1nnn(CC(=O)Nc2cc(C)cc(C)c2)c1N")
"0 (no)"
>>> class_assignment("CCn1cc(/C=C/c2cc[n+](C)cc2)c2ccccc21")
"1 (yes)"

Moving on to the next compound.
INPUT: Dear all, I need the recorded test outcome for COc1ccc(/C=C2\SC(=O)N(CCC(=O)Nc3ccccc3)C2=O)cc1OC , thank you.
OUTPUT: 0 (no)

====

biological target: Nuclear receptor subfamily 1 group D member 1 (Homo sapiens); test: modulators of Rev-erb alpha DNA binding, dose response, biochemical, FITC-DNA, fluorescence polarization (AID 1259321)
Active and inactive are the calls of the source.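 How the source made its calls: active means half-maximal concentration for changing protein binding to DNA, from the fitted dose curve, below 10 micromolar; inactive means the rest.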
API: response.call in active, inactive

Please review the entries below; each comes with its answer.
>>> class_assignment("Brc1cc(Br)c2ncnc(N3CCCCC3)c2c1")
"active"
>>> class_assignment("COc1ccc(Cl)cc1-c1cc(C(=O)Nc2ccc(F)cc2)[nH]n1")
"active"

Now let's try a different one.
INPUT: Record lookup: outcome of this test for CCNc1ccc2noc3c2c1C(=O)c1ccccc1-3 ?
OUTPUT: inactive

====

molecular target: Nuclear receptor subfamily 1 group D member 1 (Homo sapiens) (UniProt P20393); experiment: modulators of Rev-erb alpha DNA binding, dose response, biochemical, FITC-DNA, fluorescence polarization (AID 1259321)
Calls of active or inactive are those of the source.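 How the source made its calls: active means half-maximal concentration for changing protein binding to DNA, from the fitted dose curve, below 10 micromolar; inactive means the rest.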
Field 'call' accepts active, inactive

// below: answered molecules
>>> class_assignment("COc1ccc(C(=O)NC(=S)Nc2ccc3[nH]c(=O)[nH]c3c2)c(OC)c1")
"inactive"
>>> class_assignment("COc1cccc(C(=O)n2ccc3ccc(-c4ccc5ccn(C(=O)c6cccc(OC)c6)c5c4)cc32)c1")
"active"
>>> class_assignment("Cc1ccccc1NC(=O)c1sc(NC(=O)COc2ccccc2)c(C#N)c1C")
"inactive"
>>> class_assignment("Cc1ccc(-c2nn(C)c(=O)c3ccccc23)cc1S(=O)(=O)N1CCCC1")
"inactive"
>>> class_assignment("CCOC(=O)c1nn(-c2ccc(F)cc2)c(=O)cc1OCC(=O)Nc1cccc(C)c1")
"active"

INPUT: Just curious, what result did CCOc1ccc(NC(=O)CSc2nc(C3CC3)nc3ccccc23)cc1 get here?
OUTPUT: active

INPUT: Consider next the molecule COC(=O)c1ccc2nc(Nc3nc4c(F)cc(F)cc4s3)sc2c1 in the same way.
OUTPUT: active

INPUT: Could you do the same for COc1cc(N2N=C(c3ccccc3)CC2c2ccccc2)c(C=O)cc1C=O (stereo not drawn) , please?
OUTPUT: active
